- Tgt: KRAS G12C (Homo sapiens, UniProt P01116, G12C)
- Construct: 4 nM KRAS; aa1-188 containing the G12V, G12C, G12A or G12S amino acid substitution
- Sequence (P01116 1-188 isoform P01116-2 G12C): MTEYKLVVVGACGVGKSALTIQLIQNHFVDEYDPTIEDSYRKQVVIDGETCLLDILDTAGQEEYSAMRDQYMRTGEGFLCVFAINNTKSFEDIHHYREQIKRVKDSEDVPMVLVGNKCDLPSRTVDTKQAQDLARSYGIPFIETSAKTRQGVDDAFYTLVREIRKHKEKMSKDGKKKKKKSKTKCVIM
- Protocol text: HTRF nucleotide exchange assay (NEA), KRAS G12C
- Type: biochemical
Property: IC50

API: value(readout=IC50, system=KRAS G12C (Homo sapiens, UniProt P01116, G12C)) for record O=C1CN(c2nc(OCC34CCCN3CCC4)nc3c(F)c(-c4cc(O)cc5ccccc45)ncc23)CCCN1
10 to 100 nM

API: value(readout=IC50, system=KRAS G12C (Homo sapiens, UniProt P01116, G12C)) for record CN1CCCN(c2nc(OCC34CCCN3CCC4)nc3c(F)c(-c4cc(O)cc5ccccc45)ncc23)CC1=O
100 to 10000 nM

API: value(readout=IC50, system=KRAS G12C (Homo sapiens, UniProt P01116, G12C)) for record CSCCCN(C)c1nc(OCC23CCCN2CCC3)nc2c(F)c(-c3cc(O)cc4ccccc34)ncc12
100 to 10000 nM

API: value(readout=IC50, system=KRAS G12C (Homo sapiens, UniProt P01116, G12C)) for record C#Cc1c(F)ccc2cc(O)cc(-c3ncc4c(NCCCOC)nc(OC[C@@]56CCCN5C[C@H](F)C6)nc4c3F)c12 (relative stereo)
≤ 10 nM
